- assaySystem: F876L mutant Androgen Receptor (AR-F876L) (Homo sapiens, UniProt P10275, F877L)
- Construct: expressed in transfected cells; host or cells: LNCaP (LNCaP F876L)
- Sequence (P10275 whole entry F877L): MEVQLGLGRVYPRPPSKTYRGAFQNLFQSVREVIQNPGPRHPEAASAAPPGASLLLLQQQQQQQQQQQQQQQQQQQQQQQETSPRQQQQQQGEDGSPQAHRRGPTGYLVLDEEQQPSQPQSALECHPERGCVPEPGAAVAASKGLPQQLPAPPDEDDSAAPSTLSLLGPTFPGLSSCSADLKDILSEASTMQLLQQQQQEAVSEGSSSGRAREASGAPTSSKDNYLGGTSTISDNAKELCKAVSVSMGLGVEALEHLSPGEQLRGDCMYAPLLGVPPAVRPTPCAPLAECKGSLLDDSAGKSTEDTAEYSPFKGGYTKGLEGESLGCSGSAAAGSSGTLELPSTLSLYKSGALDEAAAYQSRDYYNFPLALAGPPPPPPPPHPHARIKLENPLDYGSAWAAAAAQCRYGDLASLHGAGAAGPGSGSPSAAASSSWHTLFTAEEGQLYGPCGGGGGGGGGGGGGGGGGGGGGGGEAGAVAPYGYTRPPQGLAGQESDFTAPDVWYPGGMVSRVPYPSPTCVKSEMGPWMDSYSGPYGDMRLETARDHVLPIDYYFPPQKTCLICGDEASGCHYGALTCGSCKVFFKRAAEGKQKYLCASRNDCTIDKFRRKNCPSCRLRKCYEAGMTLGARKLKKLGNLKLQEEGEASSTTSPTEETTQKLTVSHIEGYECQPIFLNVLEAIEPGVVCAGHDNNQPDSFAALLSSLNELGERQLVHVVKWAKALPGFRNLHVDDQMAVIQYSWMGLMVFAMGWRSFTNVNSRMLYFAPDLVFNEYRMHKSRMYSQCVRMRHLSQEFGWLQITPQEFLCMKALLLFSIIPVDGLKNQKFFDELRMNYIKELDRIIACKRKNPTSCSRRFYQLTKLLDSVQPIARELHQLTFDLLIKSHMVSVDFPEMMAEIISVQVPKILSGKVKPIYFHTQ
- test: LNCaP-AR-F876L AG reporter assay (ARE firefly luciferase, agonist mode)
- Format: cell-based
- experimentalParameters: read-out: LNCaP-AR-F876L AG MAX % Stim
Hi there, I'd appreciate the recorded Emax for every entry that follows.
Param answer (str): number followed by unit.

compound: Cc1cc(N2C(=O)C3(CCC3)N(c3ccc(Oc4ccncn4)cc3)C2=S)cnc1C#N [Cpd 62]
assaySystem: F876L mutant Androgen Receptor (AR-F876L) (Homo sapiens, UniProt P10275, F877L)
Emax: 0.4%

Required: Emax, one value per compound below.
1. N#Cc1ncc(N2C(=O)C3(CCC3)N(c3ccc(C(=O)NCCCc4ccccc4)c(F)c3)C2=S)cc1C(F)(F)F [Cpd 57]
2. N#Cc1ncc(N2C(=O)C3(CCC3)N(c3ccc(OCCCN4CCCC4)c(F)c3)C2=S)cc1C(F)(F)F [Cpd 55]
3. CC(C)(O)CNC(=O)c1ccc(N2C(=S)N(c3cnc(C#N)c(C(F)(F)F)c3)C(=O)C23CCC3)cc1F [Cpd 17]
4. N#Cc1ncc(N2C(=O)C3(CCC3)N(c3ccc(C(=O)NCCCN4CCOCC4)c(F)c3)C2=S)cc1C(F)(F)F [Cpd 72]
5. N#Cc1ncc(N2C(=O)C3(CCC3)N(c3cccc(CO)c3)C2=S)cc1C(F)(F)F [Cpd 81]
6. N#Cc1ncc(N2C(=O)C3(CCC3)N(c3ccc4ccncc4c3)C2=S)cc1C(F)(F)F [Cpd 7]
7. N#Cc1ncc(N2C(=O)C3(CCC3)N(c3cccnc3)C2=S)cc1C(F)(F)F [Cpd 9]
8. N#Cc1ncc(N2C(=O)C3(CCC3)N(c3ccc(OC4CCN(CCO)CC4)cc3)C2=S)cc1C(F)(F)F [Cpd 51]

["0.5%", "0.6%", "0.1%", "0.6%", "1.2%", "0%", "0%", "0.2%"]

I am curious: what Emax value has been reported for C#CCNC(=O)c1ccc(N2C(=S)N(c3cnc(C#N)c(C(F)(F)F)c3)C(=O)C23CCC3)cc1F [Cpd 111] ? 2.7%
